# system: Glucose-6-phosphate 1-dehydrogenase (Homo sapiens, UniProt P11413)
# Sequence (P11413 whole entry): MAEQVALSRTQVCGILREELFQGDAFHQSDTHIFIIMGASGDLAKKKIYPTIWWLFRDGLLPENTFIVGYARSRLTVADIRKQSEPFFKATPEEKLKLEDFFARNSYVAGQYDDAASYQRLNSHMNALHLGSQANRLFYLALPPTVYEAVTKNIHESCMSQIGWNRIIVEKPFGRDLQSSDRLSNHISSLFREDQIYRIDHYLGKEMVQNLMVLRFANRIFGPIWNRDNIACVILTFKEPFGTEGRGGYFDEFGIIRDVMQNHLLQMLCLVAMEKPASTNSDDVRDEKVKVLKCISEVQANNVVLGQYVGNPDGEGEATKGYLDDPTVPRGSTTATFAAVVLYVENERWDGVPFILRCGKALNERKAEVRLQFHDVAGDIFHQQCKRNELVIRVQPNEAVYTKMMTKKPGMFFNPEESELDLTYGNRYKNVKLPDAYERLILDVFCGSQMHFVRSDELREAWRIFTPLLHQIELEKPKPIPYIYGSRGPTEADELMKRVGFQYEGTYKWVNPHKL
# assay_protocol: human G6PD enzyme inhibitors, dose response, selectivity assay for P. falciparum G6PD inhibitor project, biochemical, fluorescence (AID 504792)
# Type: functional
Activity calls are given as the source filed them.
assay_metric: IC50

                                   compound          test_value
0  Cc1ccc2[nH]c(SCC(=O)NC3CCCc4ccccc43)nc2c1 (stereo not given)  > 80 µM (inactive)
1  Cc1ccc(NC(=O)c2ccc(Cl)c(N3C(=O)C=CC3=O)c2)cc1  48.8 µM (inactive)
2  O=C(COC(=O)c1ccc2c(c1[N+](=O)[O-])C(=O)c1ccccc1C2=O)NC1CC1  > 80 µM (inactive)
3   CN(C)c1cccc2c1c(NC(=O)c1ccc(Cl)cc1)nn2C  > 80 µM (inactive)
4                         CCCCCCCCn1sccc1=O  59.3 µM (inactive)

----------
# system: Induced myeloid leukemia cell differentiation protein Mcl-1 (Homo sapiens, UniProt Q07820)
# Sequence (Q07820 whole entry): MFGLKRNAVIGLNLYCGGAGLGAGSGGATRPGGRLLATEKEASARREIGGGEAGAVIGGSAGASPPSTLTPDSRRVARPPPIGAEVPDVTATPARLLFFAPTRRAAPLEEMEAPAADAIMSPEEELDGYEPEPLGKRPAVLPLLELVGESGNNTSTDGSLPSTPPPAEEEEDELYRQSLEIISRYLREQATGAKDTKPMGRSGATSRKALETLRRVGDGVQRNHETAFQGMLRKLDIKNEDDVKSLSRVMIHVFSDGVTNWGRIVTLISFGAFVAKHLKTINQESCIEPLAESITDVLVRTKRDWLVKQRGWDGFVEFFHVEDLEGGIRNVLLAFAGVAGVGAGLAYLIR
# Assay type: functional
Calls of active or inactive are those of the source.
assay_metric: IC50

>>> df
                                    compound                                    system            test_value
 0  CN(C)S(=O)(=O)c1cccc(-c2nn(-c3ccccc3)cc2/C=C2\SC(=S)NC2=O)c1  Induced myeloid leukemia cell differentiation protein Mcl-1 (Homo sapiens, UniProt Q07820)      1.44 µM (active)
 1  Oc1nc(C(Cl)Cl)nc2sc3c(c12)CCN(Cc1ccccc1)C3  Induced myeloid leukemia cell differentiation protein Mcl-1 (Homo sapiens, UniProt Q07820)  3.75 µM (not active)
 2  CCN(CC)c1ccc(NC(=O)Nc2ccc(C(C)=O)cc2)cc1  Induced myeloid leukemia cell differentiation protein Mcl-1 (Homo sapiens, UniProt Q07820)  4.48 µM (not active)
 3  CN(C)c1ccc(/C=N/NC(=O)c2cccc(C(=O)N/N=C/c3ccc(N(C)C)cc3)n2)cc1  Induced myeloid leukemia cell differentiation protein Mcl-1 (Homo sapiens, UniProt Q07820)      1.15 µM (active)
 4  COc1ccc(N2CCC(CNC(=O)Nc3ccccc3)C2)cc1 (stereo unspecified)  Induced myeloid leukemia cell differentiation protein Mcl-1 (Homo sapiens, UniProt Q07820)      2.58 µM (active)
 5  O=C(CCN1C(=O)S/C(=C\c2ccccc2)C1=O)Nc1ccc(S(=O)(=O)Nc2nccs2)cc1  Induced myeloid leukemia cell differentiation protein Mcl-1 (Homo sapiens, UniProt Q07820)      7.24 µM (active)
 6  O=C(Nc1cccc(S(=O)(=O)N2CCOCC2)c1)c1c2c(nc3ccccc13)CCC2  Induced myeloid leukemia cell differentiation protein Mcl-1 (Homo sapiens, UniProt Q07820)      5.02 µM (active)
 7  O=C(/C=C/c1ccco1)Nc1ccc2nn(-c3ccccc3)nc2c1  Induced myeloid leukemia cell differentiation protein Mcl-1 (Homo sapiens, UniProt Q07820)      5.43 µM (active)
 8  CC1=C(C#N)C(=O)NC(=O)/C1=C/c1ccc(-c2ccc(S(N)(=O)=O)cc2)o1  Induced myeloid leukemia cell differentiation protein Mcl-1 (Homo sapiens, UniProt Q07820)      1.59 µM (active)
 9  COc1ccc(C(=O)CSc2nnc(-c3ccco3)c(-c3ccco3)n2)cc1  Induced myeloid leukemia cell differentiation protein Mcl-1 (Homo sapiens, UniProt Q07820)      6.58 µM (active)
10  CN(c1ccccc1)c1ccc(/C=C(\CCC(=O)O)c2nc3ccccc3s2)cc1[N+](=O)[O-]  Induced myeloid leukemia cell differentiation protein Mcl-1 (Homo sapiens, UniProt Q07820)      2.27 µM (active)

----------
# system: Bcl-2-related protein A1 (Mus musculus)
# Sequence (Q07440 whole entry): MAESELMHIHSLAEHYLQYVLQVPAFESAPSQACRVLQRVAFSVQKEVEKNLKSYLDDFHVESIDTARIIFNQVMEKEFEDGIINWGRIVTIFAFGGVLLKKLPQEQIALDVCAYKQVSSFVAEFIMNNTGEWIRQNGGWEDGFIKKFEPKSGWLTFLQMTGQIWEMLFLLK
# assay_protocol: Bfl-1 binding inhibitors, SAR follow-up, biochemical, fluorescence polarization (AID 1070)
The source made the active and inactive calls.
assay_metric: IC50

>>> df
                                 mol_smiles                                   system             test_value
0  O=C1C(Cl)=C(N2CCOCC2)C(=O)N1c1cc(Cl)cc(Cl)c1  Bcl-2-related protein A1 (Mus musculus)       1.63 µM (active)
1  O=C1C(Cl)=C(Cl)C(=O)N1c1ccc(C(F)(F)F)cc1  Bcl-2-related protein A1 (Mus musculus)      0.999 µM (active)
2           Clc1ccc(-n2nnc(-c3cccnc3)n2)cn1  Bcl-2-related protein A1 (Mus musculus)  > 100 µM (not active)
3  COc1ccc2nc(O)c(-c3nnn(-c4ccc(F)cc4)n3)cc2c1  Bcl-2-related protein A1 (Mus musculus)  > 100 µM (not active)

----------
# system: Cytochrome P450 2C9 (Homo sapiens, UniProt P11712)
# Sequence (P11712 whole entry): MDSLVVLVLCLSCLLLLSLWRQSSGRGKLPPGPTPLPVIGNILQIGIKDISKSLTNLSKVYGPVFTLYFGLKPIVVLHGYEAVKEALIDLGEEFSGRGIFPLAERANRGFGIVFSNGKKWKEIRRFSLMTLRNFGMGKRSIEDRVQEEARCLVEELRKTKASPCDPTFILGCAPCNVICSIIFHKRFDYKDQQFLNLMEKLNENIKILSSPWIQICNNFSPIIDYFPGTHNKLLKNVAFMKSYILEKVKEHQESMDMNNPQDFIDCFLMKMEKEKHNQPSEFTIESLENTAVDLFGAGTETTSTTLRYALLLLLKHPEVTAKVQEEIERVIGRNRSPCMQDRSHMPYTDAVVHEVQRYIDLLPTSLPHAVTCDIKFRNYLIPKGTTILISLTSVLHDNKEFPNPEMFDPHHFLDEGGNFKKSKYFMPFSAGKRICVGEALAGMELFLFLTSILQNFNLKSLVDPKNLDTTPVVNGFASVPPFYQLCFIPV
# condition_label: Potency
assay_metric: AC50

mol_smiles	test_value
C=C1C(=O)O[C@H]2C[C@@]3(C)CCCC(=C)[C@@H]3C[C@H]12	39.8 µM (inconclusive)
CC(C)[C@@H](CC(=O)N[C@@H]1CCCC[C@H]1C(=O)N[C@H](CC(=O)N[C@@H](CCC(=O)O)CC(=O)O)Cc1ccccc1)NC(=O)C[C@H](Cc1ccccc1)NC(=O)[C@@H]1CNCC[C@H]1N	6.31 µM (inconclusive)
C=CC1=C(C)C2=NC/1=C\C1=[N+]3[Zn-2][N+]4=C(/C=C5N=C(/C=C3/C(CCC(=O)O)=C1C)C(CCC(=O)O)=C\5C)C(C)=C(C=C)/C4=C/2	39.8 µM (inconclusive)
O=c1c(O)c(-c2ccc(O)c(O)c2)oc2ccccc12	31.6 µM (inconclusive)

----------
# system: Type-1 angiotensin II receptor (Homo sapiens, UniProt P30556)
# Sequence (P30556 whole entry): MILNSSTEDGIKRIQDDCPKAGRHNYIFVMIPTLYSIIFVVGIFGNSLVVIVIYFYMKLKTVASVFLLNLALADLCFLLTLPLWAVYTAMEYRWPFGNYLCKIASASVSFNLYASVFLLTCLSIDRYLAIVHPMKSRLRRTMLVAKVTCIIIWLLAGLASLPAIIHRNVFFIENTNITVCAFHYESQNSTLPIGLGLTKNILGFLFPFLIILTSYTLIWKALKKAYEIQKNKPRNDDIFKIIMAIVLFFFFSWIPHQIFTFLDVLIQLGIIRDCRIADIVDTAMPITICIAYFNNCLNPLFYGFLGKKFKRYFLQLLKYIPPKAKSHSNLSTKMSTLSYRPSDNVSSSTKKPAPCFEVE
# assay_protocol: AT1 receptor antagonists, dose response, selectivity assay for APJ receptor antagonist project, cell-based, uHTS hits (AID 463214);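 note: antagonist potency against angiotensin II stimulated AT1 response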
# Format: functional
Activity calls are given as the source filed them.
IC50: recorded values
assay_metric: IC50

>>> print(df.to_string())
                                 mol_smiles  assay_metric            test_value
0      O=C(Nc1nnc(SCc2ccc(F)cc2)s1)c1cnccn1          IC50  > 40 µM (not active)
1  CC(=O)Nc1ccc(NC(=O)CCC(=O)OCC(=O)c2cccc([N+](=O)[O-])c2)cc1          IC50    26 µM (not active)
2   COc1cc(NS(=O)(=O)c2ccc(C)cc2)c2ncccc2c1          IC50      3.88 µM (active)
3  CC(=O)/C(=N\Nc1ccc(Cl)cc1Cl)Sc1cccc2cccnc12          IC50      10.6 µM (active)

----------
# system: Serine/threonine-protein kinase pim-1 (Homo sapiens, UniProt P11309)
# Sequence (P11309 whole entry): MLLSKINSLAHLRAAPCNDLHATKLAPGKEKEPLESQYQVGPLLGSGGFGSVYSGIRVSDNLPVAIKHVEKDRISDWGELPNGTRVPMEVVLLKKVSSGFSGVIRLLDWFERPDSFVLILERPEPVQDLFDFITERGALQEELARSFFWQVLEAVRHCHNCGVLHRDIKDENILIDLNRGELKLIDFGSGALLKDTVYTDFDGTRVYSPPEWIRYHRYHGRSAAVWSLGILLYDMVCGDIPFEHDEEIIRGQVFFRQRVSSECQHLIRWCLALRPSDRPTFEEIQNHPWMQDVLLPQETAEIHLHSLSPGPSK
# Type: functional
Active and inactive are the calls of the source.
assay_metric: Ki

                                 mol_smiles         test_value
0  NC(=O)c1ccccc1Nc1nc(Nc2ccccc2)ncc1C(F)(F)F   2510 nM (active)
1                   O=C(Nc1ccccc1)Nc1ccccn1  79400 nM (active)
2  O=C(NCc1ccccc1)c1c[nH]n2c(=O)cc(-c3ccncc3)nc12   25.1 nM (active)
3       OCCNc1cc(-c2c[nH]c3ncccc23)cc(Cl)n1   1580 nM (active)

----------
# system: Microphthalmia-associated transcription factor (Homo sapiens, UniProt O75030)
# Sequence (O75030 whole entry): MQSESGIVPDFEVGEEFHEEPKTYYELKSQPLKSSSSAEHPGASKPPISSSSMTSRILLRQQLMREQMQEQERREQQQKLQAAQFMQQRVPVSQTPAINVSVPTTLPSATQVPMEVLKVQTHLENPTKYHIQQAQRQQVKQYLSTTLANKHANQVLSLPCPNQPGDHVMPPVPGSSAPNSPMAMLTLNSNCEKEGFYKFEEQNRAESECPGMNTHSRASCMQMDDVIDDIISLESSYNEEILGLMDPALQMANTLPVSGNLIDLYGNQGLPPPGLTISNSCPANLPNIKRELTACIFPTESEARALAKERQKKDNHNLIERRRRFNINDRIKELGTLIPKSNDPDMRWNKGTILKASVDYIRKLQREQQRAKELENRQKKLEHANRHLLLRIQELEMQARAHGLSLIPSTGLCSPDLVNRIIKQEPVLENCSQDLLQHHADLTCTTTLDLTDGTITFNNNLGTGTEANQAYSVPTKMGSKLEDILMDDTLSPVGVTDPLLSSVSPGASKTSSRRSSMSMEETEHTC
# assay_protocol: TRPM1 promoter luciferase signal decrease, dose response, MITF inhibitor project, cell-based, SK-MEL-5, cherry-picked, set 3 (AID 493073);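 note: SK-MEL-5 melanoma cells with luciferase driven by the MITF target TRPM1 promoter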
# Type: functional
Active and inactive are the calls of the source.
AC50: recorded values
assay_metric: AC50

>>> print(df.to_string())
                                   molecule  assay_metric         test_value
0  Cn1cc([N+](=O)[O-])c(C(=O)Nc2nc(-c3ccc(Cl)cc3)cs2)n1          AC50   10.5 µM (active)
1  CCCCN(CC)CCCNC(=O)c1cc2c(=O)n(CC)c3ccccc3c2s1          AC50   21.6 µM (active)
2       COc1cccc(/C=N/Nc2ccc(C(=O)O)cc2)c1O          AC50  0.333 µM (active)
3  COc1cccc(N2CCN(C(=O)c3ccc(C[S+]([O-])c4ccccc4Cl)o3)CC2)c1 (centres undefined)          AC50  0.894 µM (active)

----------
EC50: recorded values
# Tested on: BJ
# assay_protocol: cells
# Type: functional, cell-based, Homo sapiens
# condition_label: Homo sapiens, BJ
Activity calls are given as the source filed them.
assay_metric: EC50

In [3]: df
Out[3]:
                                   compound  system             test_value
0       Oc1ccc(N=Nc2ccc3c(c2)OCO3)c2ccccc12      BJ       10.9 µM (active)
1  O=C(O)C[C@H](O)C[C@H](O)/C=C/c1c(C2CC2)nc2ccccc2c1-c1ccc(F)cc1      BJ       4.21 µM (active)
2  CCOCCCNc1nc2c(C)cccn2c(=O)c1/C=C1\SC(=S)N(C(C)CC)C1=O (stereo not given)      BJ  > 150 µM (not active)
3      Oc1cc(C(F)(F)F)nc2ccc(OC(F)(F)F)cc12      BJ       41.4 µM (active)
4  O=C(COC(=O)c1ccc2c(c1[N+](=O)[O-])C(=O)c1ccccc1C2=O)NC1CC1      BJ  > 150 µM (not active)
